Values were extracted from patent US7723527B2.

Biological target: human histamine H4 receptor (Homo sapiens)
Construct: expressed in transfected cells; host or cells: SK-N-MC cells or COS7 cells, transiently transfected; cell membranes used
Sequence (Q9H3N8 whole entry): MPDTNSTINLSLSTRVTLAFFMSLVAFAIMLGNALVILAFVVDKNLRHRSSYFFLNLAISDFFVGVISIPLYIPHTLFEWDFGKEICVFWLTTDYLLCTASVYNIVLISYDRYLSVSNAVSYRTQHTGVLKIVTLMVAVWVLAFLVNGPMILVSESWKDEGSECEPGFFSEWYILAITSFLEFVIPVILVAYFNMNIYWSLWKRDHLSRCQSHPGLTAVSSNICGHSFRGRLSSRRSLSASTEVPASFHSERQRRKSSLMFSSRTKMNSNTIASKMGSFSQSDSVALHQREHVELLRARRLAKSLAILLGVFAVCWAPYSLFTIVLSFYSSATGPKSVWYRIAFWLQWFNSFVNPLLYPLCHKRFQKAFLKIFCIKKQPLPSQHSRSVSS
Assay: Binding assay on recombinant human histamine H4 receptor (3H-histamine displacement)
Details: competition binding with 3H-histamine; membranes of SK-N-MC or COS7 cells expressing human H4 receptor; Cheng-Prusoff, KD 5 nM, ligand 5 nM
Field 'label' (enum: y / n). Set to y when Ki is strictly under 0.07 µM; else n.

In plain terms, does Cc1cc(Cl)cc2[nH]c(-c3ccc(OCCCN4CCN(C)CC4)cc3Cl)nc12 [Example 19] come in under 0.07 µM for Ki?
y

In plain terms, does Cc1cc(C)c2nc(-c3ccc(OCCCC4CCN(C)CC4)cc3Cl)[nH]c2c1 [Example 16] come in under 0.07 µM for Ki?
y

In plain terms, does Cc1cc(C)c2nc(-c3ccnc(OCCCCC4CCN(C)CC4)c3)[nH]c2c1 [Example 145] come in under 0.07 µM for Ki?
y

In plain terms, does COc1cc(-c2nc3cc(C(F)(F)F)ccc3[nH]2)ccc1OCCCN1CCN(C)CC1 [Example 33] come in under 0.07 µM for Ki?
n

In plain terms, does Cc1cc2[nH]c(-c3ccc(OCCCN4CCN(C)CC4)c(Cl)c3)nc2cc1Cl [Example 18] come in under 0.07 µM for Ki?
y

In plain terms, does Cc1cc2nc(-c3cccc(OCCCCN4CCN(C)CC4)c3)[nH]c2cc1C [Example 29] come in under 0.07 µM for Ki?
n

In plain terms, does CN1CCN(CCCOc2ccc(-c3nc4cc(Cl)c(F)cc4[nH]3)cc2F)CC1 [Example 24] come in under 0.07 µM for Ki?
n

In plain terms, does Cc1cc(OCCCN2CCNCC2C)ccc1-c1nc2cc(C(C)(C)C)ccc2[nH]1 (stereo not drawn) [Example 86] come in under 0.07 µM for Ki?
n

In plain terms, does Cc1cc(-c2nc3c(C)c(C)ccc3[nH]2)ccc1OCCCN1CCN(C)CC1 [Example 6] come in under 0.07 µM for Ki?
y

In plain terms, does Cc1cc(Cl)cc2[nH]c(-c3ccc(OCCCC4=CCN(C)CC4)nc3)nc12 [Example 123] come in under 0.07 µM for Ki?
y

In plain terms, does Cc1c(F)ccc2[nH]c(-c3cc(OCCCCC4CCN(C)CC4)ncc3Cl)nc12 [Example 136] come in under 0.07 µM for Ki?
y

In plain terms, does Cc1cccc2[nH]c(-c3ccc(OCCCN4CCN(C)CC4)nc3)nc12 [Example 104] come in under 0.07 µM for Ki?
n

====

Target: human histamine H4 receptor (Homo sapiens)
Construct: expressed in transfected cells; host or cells: SK-N-MC cells or COS7 cells, transiently transfected; cell membranes used
Assay: Binding assay on recombinant human histamine H4 receptor (3H-histamine displacement)
Settings: competition binding with 3H-histamine; membranes of SK-N-MC or COS7 cells expressing human H4 receptor; Cheng-Prusoff, KD 5 nM, ligand 5 nM
Task for the reader: assign each of the following compounds its reported Ki.
Quick reminder: number only, in nM, skip the unit.

In plain terms, Cc1c(OCCCCC2CCN(C)CC2)cccc1-c1nc2c(C)cc(Cl)cc2[nH]1 has a documented Ki of 41

In plain terms, CN1CCN(CCCOc2ccc(-c3nc4cc(Cl)ccc4[nH]3)c(Cl)c2)CC1 has a documented Ki of 35

In plain terms, Cc1cccc2[nH]c(-c3ccc(OCC(C)CN4CCN(C)CC4)cc3Cl)nc12 (stereo not drawn) has a documented Ki of 136

In plain terms, Cc1cc(C)c2nc(-c3ccc(OCCCC4=CCN(C)CC4)nc3)[nH]c2c1 has a documented Ki of 77

In plain terms, CN1CCC(CCCCOc2cc(-c3nc4cc(Cl)c(F)cc4[nH]3)c(Br)cn2)CC1 has a documented Ki of 31

In plain terms, Cc1ccc2[nH]c(-c3ccc(OCCCN4CCCN(C)CC4)cc3Cl)nc2c1C has a documented Ki of 9

In plain terms, Cc1ccc2[nH]c(-c3ccc(OCCCN4CCN(C)CC4)c(C)c3)nc2c1 has a documented Ki of 113

In plain terms, CN1CCN(CCCOc2ccc(-c3nc4cc(C(F)(F)F)ccc4[nH]3)cc2Cl)CC1 has a documented Ki of 87

In plain terms, CN1CCN(C(=O)CCCOc2cccc(-c3nc4cc(C(C)(C)C)ccc4[nH]3)c2)CC1 has a documented Ki of 257

In plain terms, CN1CCN(CCCOc2ccc(-c3nc4cc(C(C)(C)C)ccc4[nH]3)cc2Cl)CC1 has a documented Ki of 65

In plain terms, Cc1cc(OCCCC2CCN(C)CC2)ncc1-c1nc2c(C)cc(Cl)cc2[nH]1 has a documented Ki of 6

In plain terms, Cc1cc(OCCCC2CCN(C)CC2)ccc1-c1nc2c(Cl)cccc2[nH]1 has a documented Ki of 5
